Entries and their Kd values follow.
- TGT: FGFR4 (Homo sapiens (Human))
- Sequence (P22455 22-802): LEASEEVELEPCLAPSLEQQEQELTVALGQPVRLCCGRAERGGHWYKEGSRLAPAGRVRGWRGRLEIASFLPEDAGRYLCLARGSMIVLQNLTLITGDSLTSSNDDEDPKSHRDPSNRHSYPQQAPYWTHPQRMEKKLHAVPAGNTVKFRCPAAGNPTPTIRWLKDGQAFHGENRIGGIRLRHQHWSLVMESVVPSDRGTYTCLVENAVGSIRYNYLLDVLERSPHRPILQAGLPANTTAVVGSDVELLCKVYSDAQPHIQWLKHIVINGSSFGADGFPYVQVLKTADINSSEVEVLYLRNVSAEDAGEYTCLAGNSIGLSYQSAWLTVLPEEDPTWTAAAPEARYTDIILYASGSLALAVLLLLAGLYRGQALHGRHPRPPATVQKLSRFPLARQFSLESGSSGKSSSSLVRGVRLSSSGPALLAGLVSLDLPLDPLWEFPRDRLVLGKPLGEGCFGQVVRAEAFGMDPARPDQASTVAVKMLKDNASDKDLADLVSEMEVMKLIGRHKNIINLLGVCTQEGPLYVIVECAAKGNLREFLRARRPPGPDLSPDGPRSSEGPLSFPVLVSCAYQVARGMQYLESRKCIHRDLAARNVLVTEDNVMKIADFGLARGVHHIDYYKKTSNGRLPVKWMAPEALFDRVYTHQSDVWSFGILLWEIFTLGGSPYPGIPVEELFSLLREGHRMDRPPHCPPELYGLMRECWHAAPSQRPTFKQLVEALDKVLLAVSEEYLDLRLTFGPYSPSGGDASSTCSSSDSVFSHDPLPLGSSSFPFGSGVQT
- TEST SUMMARY: Kinase assay, binding constants (Kd), kinase-tagged T7 phage, qPCR

STRUCTURE: Cc1ncc(Cl)c([C@@H](C)Oc2ccc3[nH]nc(-c4ccc(N5CC6(CCCO6)C5)nc4)c3c2)c1Cl
TGT: FGFR4 (Homo sapiens (Human))
Kd: 20 to 100 nM

STRUCTURE: Cc1ncc(Cl)c([C@@H](C)Oc2ccc3[nH]nc(-c4ccc(N5CC(C)(O)C5)nc4)c3c2)c1Cl
TGT: FGFR4 (Homo sapiens (Human))
Kd: 1 to 20 nM

STRUCTURE: C[C@@H](Oc1ccc2[nH]nc(-c3cnc(N4CC5(CCN(S(C)(=O)=O)CC5)C4)nc3)c2c1)c1c(Cl)cncc1Cl
TGT: FGFR4 (Homo sapiens (Human))
Kd: 1 to 20 nM

STRUCTURE: C[C@@H](Oc1ccc2[nH]nc(-c3ccc(N4CC5(CCCN(S(C)(=O)=O)C5)C4)nc3)c2c1)c1c(Cl)cncc1Cl
TGT: FGFR4 (Homo sapiens (Human))
Kd: 1 to 20 nM

STRUCTURE: Cc1cnnc(C)c1[C@@H](C)Oc1ccc2[nH]nc(-c3ccc(N4CC5(CCCN(S(C)(=O)=O)C5)C4)nc3)c2c1
TGT: FGFR4 (Homo sapiens (Human))
Kd: 1 to 20 nM

STRUCTURE: Cc1ncc(Cl)c([C@@H](C)Oc2cc3c(-c4cnc(N5CC6(C5)CN(S(C)(=O)=O)C6)c(C#N)c4)n[nH]c3cc2F)c1Cl
TGT: FGFR4 (Homo sapiens (Human))
Kd: 1 to 20 nM

STRUCTURE: C[C@@H](Oc1ccc2[nH]nc(-c3ccc(N4CC5(C4)CN(S(C)(=O)=O)C5)nc3)c2c1)c1c(Cl)cnc(F)c1Cl
TGT: FGFR4 (Homo sapiens (Human))
Kd: 1 to 20 nM

* * *

We begin with a simple list: items and their reported Kd.
- TGT: FGFR3 (Homo sapiens (Human))
- Sequence (P22607 23-806): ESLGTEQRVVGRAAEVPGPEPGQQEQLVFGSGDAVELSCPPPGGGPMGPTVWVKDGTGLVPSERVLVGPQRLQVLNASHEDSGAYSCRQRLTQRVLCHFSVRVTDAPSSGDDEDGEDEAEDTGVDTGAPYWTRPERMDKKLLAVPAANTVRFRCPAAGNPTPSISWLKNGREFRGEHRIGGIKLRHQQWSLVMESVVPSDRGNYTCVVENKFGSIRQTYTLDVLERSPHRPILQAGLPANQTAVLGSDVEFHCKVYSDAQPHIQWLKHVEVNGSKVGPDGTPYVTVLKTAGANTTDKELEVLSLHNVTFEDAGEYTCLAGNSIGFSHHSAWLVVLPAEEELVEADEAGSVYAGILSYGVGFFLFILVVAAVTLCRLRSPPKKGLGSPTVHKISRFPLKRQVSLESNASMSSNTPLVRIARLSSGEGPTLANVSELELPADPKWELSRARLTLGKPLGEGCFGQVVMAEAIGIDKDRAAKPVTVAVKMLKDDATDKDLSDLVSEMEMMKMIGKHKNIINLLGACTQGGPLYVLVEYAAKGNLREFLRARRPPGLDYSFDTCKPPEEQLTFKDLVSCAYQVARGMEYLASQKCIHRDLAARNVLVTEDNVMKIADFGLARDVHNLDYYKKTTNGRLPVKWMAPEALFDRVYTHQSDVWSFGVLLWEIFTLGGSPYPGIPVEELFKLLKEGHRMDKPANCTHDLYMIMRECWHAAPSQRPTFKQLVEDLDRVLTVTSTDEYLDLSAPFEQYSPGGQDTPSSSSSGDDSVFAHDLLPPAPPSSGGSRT
- TEST SUMMARY: Kinase assay, binding constants (Kd), kinase-tagged T7 phage, qPCR

COMPOUND: C[C@@H](Oc1ccc2[nH]nc(-c3cnn(C4CCN(C5CCC5)CC4)c3)c2c1)c1c(Cl)cncc1Cl
Kd: 1 to 20 nM

COMPOUND: CCOC(=O)N1CC2(C1)CN(c1ncc(-c3n[nH]c4ccc(O[C@H](C)c5c(Cl)cnc(C)c5Cl)cc34)cn1)C2
Kd: 20 to 100 nM

COMPOUND: C[C@@H](Oc1ccc2[nH]nc(-c3cnn(C4CNC4)c3)c2c1)c1c(Cl)cncc1Cl
Kd: 1 to 20 nM

COMPOUND: CNC1(C)CN(c2ncc(-c3n[nH]c4cc(Cl)c(O[C@H](C)c5c(Cl)cnc(C)c5Cl)cc34)cc2F)C1
Kd: 1 to 20 nM

COMPOUND: CCOC(=O)N1CCC2(CC1)CN(c1ccc(-c3n[nH]c4ccc(O[C@H](C)c5c(Cl)cncc5Cl)cc34)cn1)C2
Kd: 1 to 20 nM

COMPOUND: Cc1cnnc(C)c1[C@@H](C)Oc1ccc2[nH]nc(-c3ccc(N4CC5(COC5)C4)nc3)c2c1
Kd: 1 to 20 nM

COMPOUND: Cc1ncc(Cl)c([C@@H](C)Oc2ccc3[nH]nc(-c4ccc(N5CC6(CCCO6)C5)nc4)c3c2)c1Cl
Kd: 1 to 20 nM

COMPOUND: Cc1cc(-c2n[nH]c3ccc(O[C@H](C)c4c(Cl)cncc4Cl)cc23)cnc1N1CC2(C1)CN(S(C)(=O)=O)C2
Kd: 1 to 20 nM

COMPOUND: Cc1ncc(Cl)c([C@@H](C)Oc2ccc3[nH]nc(-c4ccc(N5CC6(CC(O)C6)C5)nc4)c3c2)c1Cl
Kd: 1 to 20 nM

COMPOUND: Cc1cnnc(C)c1[C@@H](C)Oc1ccc2[nH]nc(-c3ccc(N4CC5(CCS(=O)(=O)C5)C4)nc3)c2c1
Kd: 1 to 20 nM

COMPOUND: CC(C)N1CC2(CN(c3ccc(-c4n[nH]c5ccc(O[C@H](C)c6c(Cl)cncc6Cl)cc45)cn3)C2)C1
Kd: 1 to 20 nM

COMPOUND: C[C@@H](Oc1ccc2[nH]nc(-c3ccc(C4CCNCC4)nc3)c2c1)c1c(Cl)cncc1Cl
Kd: 1 to 20 nM

COMPOUND: C[C@@H](Oc1cc2c(-c3ccc(N4CC5(C4)CN(S(C)(=O)=O)C5)nc3)n[nH]c2cc1Cl)c1c(Cl)cncc1Cl
Kd: 1 to 20 nM

COMPOUND: C[C@@H](Oc1ccc2[nH]nc(-c3cnc(N4CC5(C4)CN(S(C)(=O)=O)C5)c(C#N)c3)c2c1)c1c(Cl)cncc1Cl
Kd: 20 to 100 nM

COMPOUND: Cc1cnnc(C)c1[C@@H](C)Oc1ccc2[nH]nc(-c3cnc(N4CC5CC(C4)N5CC(C)(C)O)c(C#N)c3)c2c1
Kd: 1 to 20 nM

COMPOUND: C[C@@H](Oc1ccc2[nH]nc(-c3cnc(N4CC[C@H]4CO)c(C#N)c3)c2c1)c1c(Cl)cncc1Cl
Kd: 1 to 20 nM

COMPOUND: COC(=O)N1CC2(C1)CN(c1ccc(-c3n[nH]c4ccc(O[C@@H](C)c5c(C)cnnc5C)cc34)cn1)C2
Kd: 20 to 100 nM

COMPOUND: COc1cc2[nH]nc(-c3cnc(N4CC(C)(C)C4)c(S(C)(=O)=O)c3)c2cc1O[C@H](C)c1c(Cl)cncc1Cl
Kd: 20 to 100 nM

COMPOUND: Cc1ncc(Cl)c([C@@H](C)Oc2ccc3[nH]nc(-c4ccc(N5CC6(CCC(O)C6)C5)nc4)c3c2)c1Cl (stereo partly drawn)
Kd: 1 to 20 nM

COMPOUND: C[C@@H](Oc1ccc2[nH]nc(-c3ccc(N4CCC5(CCCO5)CC4)nc3)c2c1)c1c(Cl)cncc1Cl
Kd: 1 to 20 nM

COMPOUND: CC(C)N1CC(n2cc(-c3n[nH]c4ccc(O[C@H](C)c5c(Cl)cncc5Cl)cc34)cn2)C1
Kd: 1 to 20 nM

COMPOUND: C[C@@H](Oc1ccc2[nH]nc(-c3cnc(N4CCNCC4)nc3)c2c1)c1c(Cl)cncc1Cl
Kd: 1 to 20 nM

COMPOUND: Cc1ncc(Cl)c([C@@H](C)Oc2cc3c(-c4cnc(N5CC6(C5)CN(S(C)(=O)=O)C6)c(C#N)c4)n[nH]c3cc2F)c1Cl
Kd: 20 to 100 nM

COMPOUND: C[C@@H](Oc1ccc2[nH]nc(-c3cnc(N4CCC5(CCC(=O)N5C)CC4)c(F)c3)c2c1)c1c(Cl)cncc1Cl
Kd: 1 to 20 nM

COMPOUND: Cc1cc2[nH]nc(-c3cnc(N4CC5(C4)CN(S(C)(=O)=O)C5)c(F)c3)c2cc1O[C@@H](C)c1c(Cl)cnnc1Cl
Kd: 20 to 100 nM

COMPOUND: Cc1ncc(Cl)c([C@@H](C)Oc2ccc3[nH]nc(-c4ccc(N5CCN6C(=O)CCC6C5)nc4)c3c2)c1Cl (stereo partly drawn)
Kd: 1 to 20 nM

COMPOUND: C[C@@H](Oc1ccc2[nH]nc(-c3cnc(N4CC5(CCCS(=O)(=O)C5)C4)nc3)c2c1)c1c(Cl)cncc1Cl
Kd: 1 to 20 nM

* * *

- System: KG-1 cells (FGFR1-fusion)
- TEST SUMMARY: KG-1 cancer cell line cell viability assay (CellTiter-Glo 2.0)
- Assay type: cell-based
- MEASUREMENT SETUP: Homo sapiens, 72 hours, Cell Titer Glo 2.0
Entries and their IC50 values follow.

STRUCTURE: C[C@@H](Oc1ccc2[nH]nc(-c3ccc(N4CC5(CCS(=O)(=O)C5)C4)nc3)c2c1)c1c(Cl)cncc1Cl
IC50: 20 to 100 nM
//
STRUCTURE: COC(=O)N1CCC2(CC1)CN(c1ccc(-c3n[nH]c4ccc(O[C@H](C)c5c(Cl)cncc5Cl)cc34)cn1)C2
IC50: 100 to 300 nM
//
STRUCTURE: Cc1ncc(Cl)c([C@@H](C)Oc2ccc3[nH]nc(-c4cnn(C5CCN(C(C)C)CC5)c4)c3c2)c1Cl
IC50: 100 to 300 nM
//
STRUCTURE: C[C@@H](Oc1ccc2[nH]nc(-c3ccc(N4CCC5(CCN(C)C5)CC4)nc3)c2c1)c1c(Cl)cncc1Cl
IC50: 20 to 100 nM
//
STRUCTURE: C[C@@H](Oc1ccc2[nH]nc(-c3ccc(N4CCC5(CCCN5C)CC4)nc3)c2c1)c1c(Cl)cncc1Cl
IC50: 20 to 100 nM
//
STRUCTURE: C[C@@H](Oc1ccc2[nH]nc(-c3ccc(N4CCN(C(=O)N5CCN(C)CC5)CC4)nc3)c2c1)c1c(Cl)cncc1Cl
IC50: 20 to 100 nM
//
STRUCTURE: Cc1ncc(Cl)c([C@@H](C)Oc2ccc3[nH]nc(-c4cnn(C5CCN(C6CCC6)CC5)c4)c3c2)c1Cl
IC50: 100 to 300 nM
//
STRUCTURE: C[C@@H](Oc1ccc2[nH]nc(-c3cnc(N4CCN(C(=O)N5CCN(C)CC5)CC4)c(F)c3)c2c1)c1c(Cl)cncc1Cl
IC50: 20 to 100 nM
//
STRUCTURE: Cc1ncc(Cl)c([C@@H](C)Oc2ccc3[nH]nc(-c4cnn(C5CCN(C6COC6)CC5)c4)c3c2)c1Cl
IC50: 100 to 300 nM
//
STRUCTURE: C[C@@H](Oc1ccc2[nH]nc(-c3cnn(C4CCN(C)CC4)c3)c2c1)c1c(Cl)cncc1Cl
IC50: 20 to 100 nM
//
STRUCTURE: C[C@@H](Oc1ccc2[nH]nc(-c3ccc(N4CCN(S(=O)(=O)N5CCN(C)CC5)CC4)nc3)c2c1)c1c(Cl)cncc1Cl
IC50: 100 to 300 nM
//
STRUCTURE: CC(C)N1CC2(CN(c3ccc(-c4n[nH]c5ccc(O[C@H](C)c6c(Cl)cncc6Cl)cc45)cn3)C2)C1
IC50: 20 to 100 nM
//
STRUCTURE: C[C@@H](Oc1ccc2[nH]nc(-c3cnn(C4CCOCC4)c3)c2c1)c1c(Cl)cncc1Cl
IC50: 100 to 300 nM
//
STRUCTURE: C[C@@H](Oc1ccc2[nH]nc(-c3cnc(N4CCC5(CCC(=O)N5)CC4)nc3)c2c1)c1c(Cl)cncc1Cl
IC50: 100 to 300 nM
